Biological target: Gag-Pol polyprotein [588-1027,Y776L]/[588-1147,Y776L] (Human immunodeficiency virus 1, UniProt P04585, Y776L)
Construct: 588-1027; 588-1147
Assay: Reverse Transcriptase Assay
Property Label: Ki

INPUT: Query: Ki; subject: CCC1(c2ccc(COc3ccccc3)cc2)Oc2cccnc2-n2cccc2C1=O (stereo unspecified)
OUTPUT: < 10 µM

* * *

Target: Gag-Pol polyprotein [588-1027] (Human immunodeficiency virus type 1 group M subtype B (isolate HXB2), UniProt P04585)
Construct: 588-1027
Experiment: Reverse Transcriptase Assay
Details: pH 7.5; 37 °C
Property Label: pKi
Remember, pKi is on a log scale: it is -log10 of the molar concentration.

INPUT: Query: pKi; subject: CCC1(c2ccc(COc3cccc(Cl)c3)cc2)Oc2ccccc2-n2cccc2C1=O (stereo unspecified)
OUTPUT: 7.00

Data origin, for the record: BindingDB's records for doi:10.1021/jm801395v
